Target: T1, human GIP receptor (human) (UniProt P48546)
T1 sequence (looked up): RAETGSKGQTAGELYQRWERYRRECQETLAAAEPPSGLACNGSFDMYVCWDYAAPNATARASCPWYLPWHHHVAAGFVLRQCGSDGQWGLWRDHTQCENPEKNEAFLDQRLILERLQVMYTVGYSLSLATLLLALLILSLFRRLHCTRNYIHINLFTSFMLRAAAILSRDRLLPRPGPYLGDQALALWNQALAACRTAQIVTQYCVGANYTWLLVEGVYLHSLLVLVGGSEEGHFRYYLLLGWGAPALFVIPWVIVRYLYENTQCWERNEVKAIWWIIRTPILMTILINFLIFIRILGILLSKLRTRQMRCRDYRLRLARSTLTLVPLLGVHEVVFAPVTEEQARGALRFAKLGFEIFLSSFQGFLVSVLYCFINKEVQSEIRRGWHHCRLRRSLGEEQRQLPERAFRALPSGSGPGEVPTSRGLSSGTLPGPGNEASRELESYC
Test: cell-based or functional assay
Non-standard residues stand in square brackets, D forms with d. No end group written: not given here. αMePhe(2-F) = C[C@](N)(Cc1ccccc1F)C(=O)O; Orn = NCCC[C@H](N)C(=O)O; Aib = CC(C)(N)C(=O)O
quantity.name: log10 cAMP Rel EC50 (1% HSA) (log10 of the value in nM)
# values: log10(cAMP Rel EC50 (1% HSA)), units nM

Consider the reported log10 cAMP Rel EC50 (1% HSA) for these binders:
binder | quantity.name | numeric.value
YXQGTXTSDXXIXLDXKAAXEFIEXLIEGGPSSGAPPPSGSEE (synthetic construct; SITE 2: note = 2-Aminoisobutyric Acid; SITE 6: note = alpha-methyl-2-fluoro-L-phenylalanine; SITE 10: note = 3-(4-Pyridyl)-L-alanine; SITE 11: note = alpha-methyl-L-serine; SITE 13: note = alpha-methyl-leucine; SITE 16: note = L-ornithine; SITE 17: note = Lysine is chemically mo) [Example 704] | log10 cAMP Rel EC50 (1% HSA) | 0.08
Y[Aib]QGT[αMePhe(2-F)]TSDYSKLLDKIAQKAFIEYLIEGGPSSGEPPPSEG-NH2 (not fully specified (residue 20)) [Example 304] | log10 cAMP Rel EC50 (1% HSA) | 1.68
Y[Aib]QGT[αMePhe(2-F)]TSDYSILLDKAAQK[Orn]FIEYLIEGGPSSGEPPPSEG-NH2 (not fully specified (residue 20)) [Example 306] | log10 cAMP Rel EC50 (1% HSA) | 1.98
YXQGTFTSDXSQXLDXKAQXAFIEYLIAXGPSSGEPPPSGSEE (non-natural residues, C-terminal amide, acylated Lys with fatty diacid; synthetic construct; SITE 2: note = 2-Aminoisobutyric Acid; SITE 10: note = 3-(4-Pyridyl)-L-alanine; SITE 13: note = alpha-methyl-leucine; SITE 16: note = L-ornithine; SITE 17: note = Lysine is chemically modified through conjugation of the epsilon-amino group of the Lysine side chain with (2-[2-(2-) [Example 1095] | log10 cAMP Rel EC50 (1% HSA) | 0.94

Data request, read-out log10 cAMP Rel EC50 (1% HSA), for YXQGTFTSDXSQXLDKKAQXAFIEYLIEXGPSSGAPPPSGSEE (acylated lysine γGlu-C18 diacid; non-natural residues; C-terminal amide; synthetic construct; SITE 2: note = 2-Aminoisobutyric Acid; SITE 10: note = 3-(4-Pyridyl)-L-alanine; SITE 13: note = alpha-methyl-leucine; SITE 17: note = Lysine is chemically modified through conjugation of the epsilon-amino group of the Lysine side chain with D-Glutamic acid-(gamma-Glu)-CO-(CH2)16) [Example 928] 1.18

Quick one: YXQGTFTSDXSQXLDXKAQXAFIEYLIQXGPSSGEPPPSGSEE (non-natural residues; lipidated Lys AEEA-γGlu-C18 diacid; C-term amide; synthetic construct; SITE 2: note = 2-Aminoisobutyric Acid; SITE 10: note = 3-(4-Pyridyl)-L-alanine; SITE 13: note = alpha-methyl-leucine; SITE 16: note = L-ornithine; SITE 17: note = Lysine is chemically modified through conjugation of the epsilon-amino group of the Lysine side chain with (2-[2-(2-) [Example 1096] 1.06
